# system-tested: Histone-lysine N-methyltransferase EHMT2 (Homo sapiens) (UniProt Q96KQ7)
# Sequence (Q96KQ7 913-1193 limits assumed): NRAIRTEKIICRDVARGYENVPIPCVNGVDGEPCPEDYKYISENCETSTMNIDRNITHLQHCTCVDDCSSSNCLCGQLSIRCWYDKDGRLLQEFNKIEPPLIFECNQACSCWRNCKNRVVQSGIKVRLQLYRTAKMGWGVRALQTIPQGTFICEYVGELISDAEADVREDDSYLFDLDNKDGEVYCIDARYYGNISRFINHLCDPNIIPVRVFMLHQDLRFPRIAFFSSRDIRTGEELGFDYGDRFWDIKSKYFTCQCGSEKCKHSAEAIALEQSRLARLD
# test: qHTS Assay for Inhibitors of Histone Lysine Methyltransferase G9a; also: nearly all actives have a fitted effect of over 75% in size; as to activity, negative = inhibition: % is scaled to controls: 0 for no effect and ±100 for the full control effect
# settings: G9a H3K9 monomethylation, AlphaScreen, 2 h; series mostly up to 59 µM
Out of some 350,000 compounds screened, about 31,000 (8.9%) were called active. Not shown: some 15% with an inconclusive outcome. What follows is part of a selection rich in actives, with near analogues and random picks from the rest.
In this section we review reported activity, negative = inhibition values for a set of molecules.

Cc1cc(-c2n[nH]c(=S)n2/N=C/c2ccco2)n[nH]1    -104% [at 12.7 µM] (inactive)
CCc1c(C)nc(N2CCN(Cc3ccccc3)CC2)[nH]c1=O    -41.6% [at 12.7 µM] (inactive)
CCOc1ccc2[nH]c(=O)c(C(c3nnnn3CCOC)N3CCOCC3)cc2c1 (stereo unspecified)    8.47% [at 2.33 µM] (inactive)

Query string: Item `c1ccc(-c2oc3ncnc(N4CCOCC4)c3c2-c2ccccc2)cc1` with Histone-lysine N-methyltransferase EHMT2 (Homo sapiens) (UniProt Q96KQ7) - activity, negative = inhibition?
Result string: -7.86% [at 12.7 µM] (inactive)

Query string: Would you mind doing COc1ccc(NC(=O)CC2SC(N3CCCCC3)=NC2=O)cc1OC (stereo unspecified) as well?
Result string: 29.8% [at 12.7 µM] (inactive)

Query string: Would you mind doing `O=C(CSc1ncnc2sccc12)N1CCN(C(=O)c2cccs2)CC1` as well?
Result string: 14% [at 12.7 µM] (inactive)

###

In this section we review reported activity, negative = inhibition values for a set of molecules.
# system-tested: Histone-lysine N-methyltransferase EHMT2 (Homo sapiens) (UniProt Q96KQ7)
# test: qHTS Assay for Inhibitors of Histone Lysine Methyltransferase G9a; also: nearly all actives have a fitted effect of over 75% in size; as to activity, negative = inhibition: % is scaled to controls: 0 for no effect and ±100 for the full control effect
# settings: G9a H3K9 monomethylation, AlphaScreen, 2 h; series mostly up to 59 µM
The whole screen tested about 350,000 compounds, of which about 31,000 (8.9%) were called active. Roughly 15% stayed inconclusive and do not appear here. For the sample, actives were picked, then their nearest neighbours and some compounds at random.

OC(c1ccc(Cl)cc1)C(CN1CCOCC1)c1ccccc1 (stereo unspecified)    -30.5% [at 2.33 µM] (inactive)

Query string: I would be grateful if you could share the reported activity, negative = inhibition for `Cc1ccsc1C(=O)NCCc1ccco1` .
Result string: -0.499% [at 12.7 µM] (inactive)

Query string: Would you mind doing `CCCn1c(N)c(N(CCOC)C(=O)C2CCCC2)c(=O)[nH]c1=O` as well?
Result string: 15% [at 2.33 µM] (inactive)

###

# system-tested: Histone-lysine N-methyltransferase EHMT2 (Homo sapiens)
# test: qHTS Assay for Inhibitors of Histone Lysine Methyltransferase G9a; also: nearly all actives have a fitted effect of over 75% in size
# settings: G9a H3K9 monomethylation, AlphaScreen, 2 h; series mostly up to 59 µM
Screen size: about 350,000 compounds; about 31,000 (8.9%) were called active. Inconclusive results (about 15%) are left out. Calls follow the shape of the dose curve; as a rule, active = well fitted inhibition curve with a large enough effect; inconclusive = small, poorly fitted or top-dose-only effect; inactive = no such curve, though single readings can be large or run the other way. The sample as a whole holds a higher share of actives than the screen did.
Use one of these outcomes when replying: True = active, False = inactive

As a guide, the following entries are already answered.
Cc1ccc(S(=O)(=O)c2nc(-c3cccs3)oc2NCc2cccnc2)cc1    True
COc1cccc(Nc2nc3ccccc3c3nncn23)c1    False
Cc1ccc(CN2CCCn3nc(C(=O)NCc4ccccc4Cl)cc3C2=O)cc1    False
CC(=O)c1ccc(N2CCN(c3nc4c(S(=O)(=O)c5ccccc5)nnn4c4ccc(Cl)cc34)CC2)cc1    False
N#CC1=C(N)Oc2[nH]c(=S)[nH]c(=O)c2C12C(=O)Nc1ccccc12 (stereo unspecified)    True
Cc1ccccc1CNC(=O)C(=O)NCC(c1cccs1)S(=O)(=O)c1cccs1 (stereo unspecified)    False
Cc1cc(O)c(NC(=O)c2ccc(C)c([N+](=O)[O-])c2)cc1C    False
COc1ccc2c(c1)N(C)/C(=C1/SC(=S)N(NC(C)=O)C1=O)S2    True
CCOC(=O)c1c(-c2ccccc2)oc2cc(Br)c(O)cc12    False
CC(=O)c1cccc(OCc2cc(C(=O)NC(C)Cc3cccnc3)no2)c1 (stereo unspecified)    False

Query string: Called result for N#CC1=C(N)Oc2n[nH]c(CSc3ccccc3)c2C12C(=O)Nc1ccccc12 (stereo unspecified)
Result string: False

Query string: Would you mind doing `COC(=O)c1ccc(/C=N/OCC(=O)Nc2cc(F)ccc2F)cc1` as well?
Result string: False

###

# system-tested: Histone-lysine N-methyltransferase EHMT2 (Homo sapiens) (UniProt Q96KQ7)
# test: qHTS Assay for Inhibitors of Histone Lysine Methyltransferase G9a; also: nearly all actives have a fitted effect of over 75% in size; also: potency is read from the fitted curve at half-maximal effect
# settings: G9a H3K9 monomethylation, AlphaScreen, 2 h; series mostly up to 59 µM
About 31,000 (8.9%) of roughly 350,000 compounds were called active. Another 15% or so got no clear call; they are omitted. This is one part of a sample in which actives are shown more often than they occur.
property-measured: Potency

Example entries and their recorded answers appear below.
Cn1c(-c2sc3cc(C(F)(F)F)cnc3c2-c2ccccc2)n[nH]c1=S    2.24 µM (active)
O=C(CCc1ccccc1)NCc1ccc2c(c1)CCN2C(=O)c1ccccc1    inactive
CC(C)Sc1ncnc2c1cnn2-c1ccccc1    inactive
CCC(=C/c1sc2ccc3ccccc3c2[n+]1C)/C=C1\Sc2ccc3ccccc3c2N1C    3.16 µM (active)
O=C(Cc1ccc(Cl)cc1)NCc1nc(-c2ccccc2)no1    inactive
CCn1cc(C(=O)N2CCN(c3cc(C)ccc3C)CC2)c(=O)c2cc(S(=O)(=O)N(C)C3CCCCC3)ccc21    inactive

Query string: I would be grateful if you could share the reported Potency for `CCn1cc(C(=O)NCCc2ccccc2)c(=O)c2cc(S(=O)(=O)N3CCCCCC3)ccc21` .
Result string: inactive

Query string: Would you mind doing `CCn1c(CN2CCC(C)CC2)nc2cc(NC(=O)c3ccccc3[N+](=O)[O-])ccc21` as well?
Result string: inactive

Query string: Would you mind doing CCC(=O)N1c2ccccc2CC1C(=O)N1CCN(c2cccc(OC)c2)CC1 (centres undefined) as well?
Result string: inactive

Query string: Would you mind doing `COC(=O)c1nn(-c2cccc(Cl)c2)ccc1=O` as well?
Result string: inactive

###

# system-tested: Histone-lysine N-methyltransferase EHMT2 (Homo sapiens)
# test: qHTS Assay for Inhibitors of Histone Lysine Methyltransferase G9a; also: nearly all actives have a fitted effect of over 75% in size
# settings: G9a H3K9 monomethylation, AlphaScreen, 2 h; series mostly up to 59 µM
# Description: Methylated lysines, on the N-terminal tails of histone proteins serve as epigenetic markers to recruit factors that can then modify local chromatin structure to lead to functional consequences. […] Methylation of biotinylated-histone peptide is measured through specific antibody-based detection, in conjunction with streptavidin-coated donor and anti-IgG antibody-coated acceptor beads. […]
The campaign covered roughly 350,000 compounds. About 31,000 (8.9%) were called active. Not shown: some 15% with an inconclusive outcome. Calls come from the whole dose curve; as a rule, active = well fitted inhibition curve with a large enough effect; inconclusive = small, poorly fitted or top-dose-only effect; inactive = no such curve, though single readings can be large or run the other way. The entries come from a sample that favours actives as a whole.
Use one of these outcomes when replying: 1 = active, 0 = inactive

As a guide, the following entries are already answered.
CCCSc1nc2c(c(=O)n(C)c(=O)n2C)n1Cc1ccc(C)cc1    0
CC(C)(C)NC(=O)COc1ccc(CNc2ccc3[nH]c(=O)[nH]c3c2)cc1    1
CSc1nn(Cc2cccc(C)c2)c(N)c1S(=O)(=O)c1ccccc1    0
COc1ccc(-c2c(-c3ccc(OC)cc3O)nc(C)nc2C(F)(F)F)cc1    0
COc1cccc(CNCc2c(C(=O)O)n(Cc3ccc(C)cc3)c3cc(C)ccc23)c1OC    0
COC(=O)c1ccc(OCC(=O)NC(C)(C)C)cc1    0
CCCCn1c(SCC(=O)NCCc2ccc(OC)c(OC)c2)nc2c1c(=O)n(C)c(=O)n2C    0
Cc1ccsc1-c1cc(C(=O)O)c2c(ccc3ccccc32)n1    0

Query string: Called result for `COc1cccc(Cn2cnc3c([N+](=O)[O-])c(C)c(C)cc32)c1`
Result string: 0

Query string: Would you mind doing `CCOc1ccc(Cn2c(SCCCCC#N)nc3c2c(=O)n(C)c(=O)n3C)cc1OCC` as well?
Result string: 1

###

# system-tested: Histone-lysine N-methyltransferase EHMT2 (Homo sapiens) (UniProt Q96KQ7)
# test: qHTS Assay for Inhibitors of Histone Lysine Methyltransferase G9a; also: nearly all actives have a fitted effect of over 75% in size
# settings: G9a H3K9 monomethylation, AlphaScreen, 2 h; series mostly up to 59 µM
The whole screen tested about 350,000 compounds, of which about 31,000 (8.9%) were called active. Inconclusive results (about 15%) are left out. The call rests on the fitted dose curve; in most records, active means well fitted inhibition curve with a large enough effect; inconclusive means small, poorly fitted or top-dose-only effect; inactive means no such curve, though single readings can be large or run the other way. What follows is part of a selection rich in actives, with near analogues and random picks from the rest.
Use one of these outcomes when replying: active, inactive

As a guide, the following entries are already answered.
COc1ccc(C2/C(=C(/O)c3ccc(OC(C)C)cc3)C(=O)C(=O)N2CCCN2CCOCC2)cc1 (stereo unspecified)    active
CCCCSc1ncnc2c1sc1nc(N3CCOCC3)c3c(c12)CCCC3    inactive
Cc1cc2c(=O)n(CC(=O)NCC(=O)Nc3ccc(C(C)C)cc3)cnc2s1    inactive
Cc1cc(OC(C)C(=O)Nc2sc3c(c2C(N)=O)CCCC3)ccc1Cl (stereo unspecified)    inactive
O=C(CN1C(=O)COc2ccc(S(=O)(=O)N3CCCCCC3)cc21)N1CCN(c2cccc(C(F)(F)F)c2)CC1    inactive
Cc1cccc(C)c1NC(=O)CSc1nc2c([nH]1)c(=O)n(C)c(=O)n2C    inactive

Query string: Called result for `COc1ccc(N2CCN(Cc3nnc(-c4ccccc4)o3)CC2)cc1`
Result string: active

Query string: Would you mind doing `COc1ccc(C(C)=O)cc1COC(=O)Cn1cnc2ccccc2c1=O` as well?
Result string: active
